Species on record: Rattus norvegicus
Assay: Ratio of binding affinities for rat A1 receptor against human A3 receptor, [Ki(rA1) / Ki (hA3)].
metric: Ratio

{"compound": "CCCc1c(C(=O)SCC)c(CC)nc(-c2ccccc2)c1C(=O)OCC(F)(F)C(F)(F)F", "Ratio": 13}
{"compound": "CCCOC(=O)c1c(-c2ccccc2)nc(CC)c(C(=O)SCCF)c1CCC", "Ratio": 150}
{"compound": "CCCOC(=O)c1c(-c2ccc(F)cc2)nc(CC)c(C(=O)SCC)c1CCC", "Ratio": 1300}
{"compound": "CCCOC(=O)c1c(-c2ccccc2F)nc(CC)c(C(=O)SCC)c1CCC", "Ratio": 590}
{"compound": "CCCc1c(C(=O)SCC)c(CC)nc(-c2ccccc2)c1C(=O)OCCCF", "Ratio": 630}

(a) CCSC(=O)c1c(CC)nc(-c2ccccc2)c(C(=O)OCCF)c1CC
(b) CCCCCCSC(=O)c1c(CC)nc(-c2cccc(Cl)c2)c(C(=O)OCCC)c1CC
Between a and b , whose recorded Ratio is greater? Kindly state the label of the option you pick.
a
(a: 2700, b: 510)

(1) CCCOC(=O)c1c(-c2ccccc2)nc(CC)c(C(=O)SCC)c1CC
(2) CCCOC(=O)c1c(-c2ccccc2)nc(CC)c(C(=O)SCC)c1CCO
Please compare: 1 and 2 . Report which one has the smaller Ratio value. Kindly state the label of the option you pick.
2
(2: 35, 1: 820)

(I) CCCOC(=O)c1c(-c2ccccc2)nc(CC)c(C(=O)SCC)c1CCSC(C)=O
(II) CCCOC(=O)c1c(-c2ccccc2)nc(CC)c(C(=O)SCC(F)(F)F)c1CCC
Please compare: I and II . Report which one has the smaller Ratio value. Kindly state the label of the option you pick.
I

(1) CCOC(=O)c1c(-c2ccccc2)nc(CC)c(C(=O)SCC)c1CCN1C(=O)c2ccccc2C1=O
(2) CCCc1c(C(=O)SCC)c(CCSC(C)=O)nc(-c2ccccc2)c1C(=O)OCC
(3) CCCOC(=O)c1c(-c2ccccc2)nc(CC)c(C(=O)SCC)c1CCCF
(4) CCCOC(=O)c1c(-c2cccc(F)c2)nc(CC)c(C(=O)SCC)c1CCC
Order these by Ratio, descending, and give the full ranking. Please write the labels in the order that was asked for.
4, 3, 2, 1
(4: 280, 3: 140, 2: 68, 1: 2)

(1) CCCOC(=O)c1c(-c2ccccc2)nc(CC)c(C(=O)SCCCF)c1CCC
(2) CCCOC(=O)c1c(-c2ccccc2)nc(CC)c(C(=O)SCC2COC(C)(C)O2)c1CCC (stereo not given)
Please compare: 1 and 2 . Report which one has the smaller Ratio value. Kindly state the label of the option you pick.
2

---

Target: Adenosine receptor A1 (Rattus norvegicus)
Sequence (P25099 whole entry): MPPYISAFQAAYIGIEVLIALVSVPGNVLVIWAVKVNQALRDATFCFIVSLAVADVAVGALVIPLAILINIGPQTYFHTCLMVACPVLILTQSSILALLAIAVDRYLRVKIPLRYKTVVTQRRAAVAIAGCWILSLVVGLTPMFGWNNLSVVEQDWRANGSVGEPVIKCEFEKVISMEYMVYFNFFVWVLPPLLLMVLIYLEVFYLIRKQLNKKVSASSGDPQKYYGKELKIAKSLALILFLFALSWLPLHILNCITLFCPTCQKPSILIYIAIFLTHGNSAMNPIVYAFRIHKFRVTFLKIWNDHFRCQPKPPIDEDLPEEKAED
Assay: Displacement of specific [3H]R-PIA binding to Adenosine A1 receptor in rat brain membranes.
pKi: −log10 of the molar value.
metric: pKi

{"chem-smiles": "CCCc1c(C(=O)SCC)c(CCSC(C)=O)nc(-c2ccccc2)c1C(=O)OCC", "pKi": 4.88}

(P) CCCOC(=O)c1c(-c2ccccc2F)nc(CC)c(C(=O)SCC)c1CCC
(Q) CCCCCCSC(=O)c1c(CC)nc(-c2cccc(Cl)c2)c(C(=O)OCCC)c1CC
Between P and Q , whose recorded pKi is greater? Kindly state the label of the option you pick.
P
(P: 4.87, Q: 3.95)
